systemUnderTest: human factor Xa (Homo sapiens, UniProt P00742)
Sequence (P00742 235-488 limits assumed): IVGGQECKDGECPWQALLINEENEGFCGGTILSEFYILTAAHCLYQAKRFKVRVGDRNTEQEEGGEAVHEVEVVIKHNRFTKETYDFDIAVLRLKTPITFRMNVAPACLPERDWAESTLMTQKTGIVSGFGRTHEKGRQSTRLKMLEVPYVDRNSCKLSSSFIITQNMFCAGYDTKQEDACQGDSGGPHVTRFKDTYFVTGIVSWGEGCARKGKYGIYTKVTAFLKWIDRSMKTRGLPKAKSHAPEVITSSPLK
Sequence (P00742 41-179 partner limits assumed): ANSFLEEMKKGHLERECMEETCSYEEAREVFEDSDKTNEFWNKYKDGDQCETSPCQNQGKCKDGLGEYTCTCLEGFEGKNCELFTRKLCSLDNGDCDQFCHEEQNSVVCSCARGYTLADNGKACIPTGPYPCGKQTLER
experimentalReadout: Ki (nM)
The reply should contain only the number, in nM.

input: Indicate the recorded Ki value for this compound: CN1CCC(N2CCN(C(=O)Cc3csc(NC(=O)c4ccc(Br)s4)n3)CC2)CC1
output: 26
